- Test system: BT-549
- PROTOCOL_SUMMARY: NCI tumour cell line growth inhibition, 48 h
Counter-ions that a name gives are not always drawn. Calls of active or inactive are those of the source. Rule as the data show it: active = GI50 up to about 1.1 µM and inactive = higher.
ENDPOINT_LABEL: GI50

As a guide, the following entries are already answered.
{"MOLECULE": "C=C(Cl)C(Cl)(CBr)CCC(Cl)C(C)(C)Cl (centres undefined)", "STUDY_SYSTEM": "BT-549", "RESULT": "5.47 µM (inactive)"}
{"MOLECULE": "CC(=O)Oc1ccccc1C(=O)O [ASPIRIN]", "STUDY_SYSTEM": "BT-549", "RESULT": "> 100 µM (inactive)"}

What the record says about CCc1ccc2c(c1)N(CC(C)CN(C)C)c1ccccc1S2 (centres undefined) [ETYMEMAZINE HYDROCHLORIDE] : GI50 is 12.9 µM (inactive)

Given item CCOc1ccc2c(c1)c(=O)c1c(NCCN(CC)CC)ccc3nnn2c31 , the value recorded as its GI50 is > 71.3 µM (inactive)

Field GI50 (entry COc1ccc2c3c(c(=O)n(C)c2c1OC)C=CC(C)(C)O3 ) reads 22.1 µM (inactive)

Entry COc1ccc(N2/C(=N/c3ccccc3)SC(=N/S(=O)(=O)c3ccccc3)/C2=N\S(=O)(=O)c2ccccc2)cc1 ; GI50 = 24.3 µM (inactive)

For this molecule ( O=C1C[C@@H](C(=O)OCc2ccccc2)NC(=O)C[C@@H](C(=O)OCc2ccccc2)NC(=O)C[C@@H](C(=O)OCc2ccccc2)N1 ), measured GI50 is > 100 µM (inactive)

# molecule O=C(c1ccccc1)c1ccc2nc3n(c2c1)C(c1c(F)cccc1F)SC3 (centres undefined) ; its GI50 = 17.3 µM (inactive)

GI50 measured on COC(=O)C(=O)C(C(=O)C(=O)Nc1ccc(C)cc1C)c1nc2ccc(Cl)cc2nc1O (centres undefined) = > 100 µM (inactive)

// CCN1CCC(O)(c2ccc(Oc3ccc(F)cc3)cc2)C(C(=O)c2ccc(Oc3ccc(F)cc3)cc2)C1 (centres undefined) : GI50 value = 15.7 µM (inactive)
